Biological target: T1, mCLDN-3 protein (mouse, UniProt Q9Z0G9 1-219)
T1 construct: Expressed on cells by retrovirus; also called mouse Claudin-3 protein
T1 sequence: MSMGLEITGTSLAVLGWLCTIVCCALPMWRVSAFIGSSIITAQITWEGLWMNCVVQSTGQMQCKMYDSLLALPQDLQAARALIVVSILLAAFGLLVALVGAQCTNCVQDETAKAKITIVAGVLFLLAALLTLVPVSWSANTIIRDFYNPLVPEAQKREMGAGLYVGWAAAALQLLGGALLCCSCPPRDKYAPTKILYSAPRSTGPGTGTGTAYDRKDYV
Assay: FACS, hybridoma supernatant on CLDN-expressing cells
assay-readout: binding result

rat anti-CLDN-5 antibody R14 (antibody, rat IgG2a, V domains shown, Hybridoma monoclonal; also called antibody K) VH: QVTLKESGPGILQPSHTLSLTCSFSGFSLSTYGMGVSWIRQPSGKGLEWLASIWWNGRTYTNPSLMSRLTVSKDTSTNQAFLRVTSVETADTATYYCAHTPYDYSNLGWFTYWGQGTLVTVSS VL: DILMTQTPSSQAVSAGEKVTVSCKSSQSLLYSGDQKSYLAWYQQKPGQSPKLLIYLASTRKSGVPDRFIGSGSGTDFTLTISSVQAEDLADYYCQQHYTYPLTFGSGTKLEI
no binding
rat anti-CLDN-5 antibody R8 (antibody, rat IgG2b, V domains shown, Hybridoma monoclonal; also called antibody H) VH: VKVVESGGGLVQPGRSMKLSCAASGFTFSDYFMAWVRQSPKKGLEWVASINYGGSRTYYEDSVKGRFTISRDNAKSTLYLQMNSLRSEDTATYYCARHPHRLFDYWGQGVMVTVSS VL: DIVMTQSPSFLAVSVGETVTINCKSSQSFLSSGNQENYLAWYQQKPGQSPKLLIHLASTRESGVPDRFIGSGSGTDFTLTISSMQAEDVAIYYCQQHYDIPYTFGAGTKLEL
no binding
mouse anti-CLDN-5 antibody M23 (antibody, mouse IgG2b, V domains shown, Hybridoma monoclonal; also called antibody C) VH: EVQLQQSGPVLVKPGPSVMISCKASGFTFTDYYMHWVKQSHGKSLEWIGLVYPYNGGTDYNQKFKGKATLTVDTSSSTAYMELNSLTSEDSAVYYCARCLYDGLYFYAMDYWGQGTSVTVSS VL: DIVMSQSPSSLAVSAGEKVTMTCKSSQSLLNSRARKNYLAWYQQKAGQSPKLLMYWASTRESGVPDRFTASGSGTDFTLTISSVQAEDLAVFYCKQSYNLPWTFGGGTKLEIKR
no binding
